- TARGET: Tolloid-like protein 1 (Homo sapiens, UniProt O43897, I156V/N221S/V284A)
- Sequence (O43897 148-1013 I156V/N221S/V284A limits assumed): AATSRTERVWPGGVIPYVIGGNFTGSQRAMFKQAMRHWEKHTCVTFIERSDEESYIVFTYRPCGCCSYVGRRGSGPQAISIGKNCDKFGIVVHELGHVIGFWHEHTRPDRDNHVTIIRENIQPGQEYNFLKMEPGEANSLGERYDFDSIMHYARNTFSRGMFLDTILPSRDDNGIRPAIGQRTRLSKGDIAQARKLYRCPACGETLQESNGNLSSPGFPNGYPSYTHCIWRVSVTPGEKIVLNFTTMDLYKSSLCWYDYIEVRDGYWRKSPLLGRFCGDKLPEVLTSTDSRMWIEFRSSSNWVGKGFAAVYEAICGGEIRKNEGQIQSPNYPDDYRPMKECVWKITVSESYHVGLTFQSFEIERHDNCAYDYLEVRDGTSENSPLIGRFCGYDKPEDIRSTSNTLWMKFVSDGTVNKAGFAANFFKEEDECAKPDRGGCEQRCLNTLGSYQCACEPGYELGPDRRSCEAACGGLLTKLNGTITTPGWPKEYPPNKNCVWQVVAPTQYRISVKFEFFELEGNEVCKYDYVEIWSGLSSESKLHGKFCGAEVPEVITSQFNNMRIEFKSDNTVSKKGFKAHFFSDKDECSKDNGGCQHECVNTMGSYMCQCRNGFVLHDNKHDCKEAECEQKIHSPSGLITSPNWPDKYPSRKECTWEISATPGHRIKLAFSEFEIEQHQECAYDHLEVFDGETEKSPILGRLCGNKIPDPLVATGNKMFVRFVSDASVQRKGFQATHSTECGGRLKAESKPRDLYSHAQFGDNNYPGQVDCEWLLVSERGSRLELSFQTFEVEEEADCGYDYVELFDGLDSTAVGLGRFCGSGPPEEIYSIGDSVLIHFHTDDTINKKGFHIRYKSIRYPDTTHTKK
- PROTOCOL DESCRIPTION: Inhibition of recombinant human TLL1 I156V/N221S/V284A mutant expressed in CHOE1A cells pre-incubated for 10 mins before promyostatin peptide substrate addition and measured after 60 mins by FRET based assay
For each entry below, report its IC50 value.

Completed entries (count: 5):
CCCCC[C@H](CN(O)C=O)C(=O)NCNC(=O)c1ccc(-c2cccc(OCCN3CCCC3)c2)o1
< 398 nM
CCCCC[C@@H](C(=O)NCNC(=O)c1ccc(-c2ccc(CC(=O)N[C@@H](CC(=O)O)C(=O)O)c(OCC)c2)o1)[C@@H](CC)N(O)C=O
< 398 nM
CCCCC[C@@H](C(=O)NCNC(=O)c1ccc(-c2ccc(C(=O)N(CC(=O)O)CC(=O)O)c(OCC)c2)o1)[C@@H](CC)N(O)C=O
< 398 nM
CCCCC[C@@H](C(=O)NCNC(=O)c1ccc(-c2cc(OCC)cc(P(=O)(O)OC)c2)o1)[C@@H](CC)N(O)C=O
< 398 nM
CCCCC[C@@H](C(=O)NCNC(=O)c1ccc(-c2ccc(CC(=O)O)c(OCC)c2)o1)[C@@H](CC)N(O)C=O
< 398 nM

Items follow; give IC50 for each.
1. CCCCC[C@@H](C(=O)NCNC(=O)c1ccc(-c2ccc(C(=O)N[C@@H](CC(=O)O)C(=O)O)c(OCC(=O)O)c2)o1)[C@@H](CC)N(O)C=O
2. CCCCC[C@H](CN(O)C=O)C(=O)NCNC(=O)c1ccc(-c2cccc(OCC(F)(F)F)c2)o1
3. CCCCC[C@H](CN(O)C=O)C(=O)NCNC(=O)c1ccc(-c2ccc(F)c(C(=O)O)c2)o1
4. CCCCC[C@@H](C(=O)NCNC(=O)c1ccc(-c2cc(OCC(=O)O)cc(C(=O)N[C@@H](CC(=O)O)C(=O)O)c2)o1)[C@@H](CC)N(O)C=O

stdout:
1: < 398 nM; 2: < 398 nM; 3: < 398 nM; 4: < 398 nM

Items follow; give IC50 for each.
1. CCOc1cc(C(=O)N(CC(=O)O)CC(=O)O)cc(-c2ccc(C(=O)NCNC(=O)[C@H](CCc3ccc(F)cc3F)[C@@H](CC)N(O)C=O)o2)c1
2. CCCCC[C@H](CN(O)C=O)C(=O)NCNC(=O)c1ccc(-c2ccc3cnn(C)c3c2)o1

stdout:
< 398 nM
< 398 nM

Items follow; give IC50 for each.
1. CCCCC[C@H](CN(O)C=O)C(=O)NCNC(=O)c1ccc(-c2cncc(OC)c2)o1
2. CCCCC[C@@H](C(=O)NCNC(=O)c1ccc(-c2ccc(P(=O)(O)O)c(OCC)c2)o1)[C@@H](CC)N(O)C=O

stdout:
1. < 398 nM
2. < 398 nM

Items follow; give IC50 for each.
1. CCCCC[C@@H](C(=O)NCNC(=O)c1ccc(-c2ccc(C(=O)N[C@@H](CC(=O)O)C(=O)O)c(OCC)c2)o1)[C@@H](CC)N(O)C=O
2. CCOc1cc(-c2ccc(C(=O)NCNC(=O)[C@H](CCc3ccc4ccccc4c3)[C@@H](CC)N(O)C=O)o2)ccc1C(=O)N[C@@H](CC(=O)O)C(=O)O

stdout:
1: < 398 nM; 2: < 398 nM
